Values compiled from ChEMBL document CHEMBL1146812.

target: Melatonin receptor type 1B (Homo sapiens) (UniProt P49286); assay: Agonist activity for its ability to inhibit forskolin-stimulated cAMP accumulation against MT2 receptor

Molecular String: Cc1nc2cccc(CCCNC(=O)C3CC3)c2o1
Result Units: nM
EC50: 0.74

====

The following molecules are shown together with reported log10 Ki values.
Target protein (sequence): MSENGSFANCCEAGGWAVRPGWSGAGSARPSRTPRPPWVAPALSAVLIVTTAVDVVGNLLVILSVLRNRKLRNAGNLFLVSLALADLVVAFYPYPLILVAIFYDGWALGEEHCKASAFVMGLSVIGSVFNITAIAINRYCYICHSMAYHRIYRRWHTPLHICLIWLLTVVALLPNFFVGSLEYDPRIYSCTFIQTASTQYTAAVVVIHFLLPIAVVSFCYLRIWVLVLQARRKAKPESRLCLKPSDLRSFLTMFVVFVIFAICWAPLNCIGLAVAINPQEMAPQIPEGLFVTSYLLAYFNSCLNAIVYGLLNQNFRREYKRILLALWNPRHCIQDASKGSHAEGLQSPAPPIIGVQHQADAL
Measure Name: log10 Ki (log10 of the value in nM)

Molecular String: CCc1nc2cccc(CCCNC(C)=O)c2o1
log10 Ki: 0.36
//
Molecular String: CC(C)C(=O)NCCCc1cccc2nc(CCCCc3ccccc3)oc12
log10 Ki: 1.26
//
Molecular String: CC(=O)NCCCc1cccc2ncoc12
log10 Ki: 0.63
//
Molecular String: CCCc1nc2cccc(CCCNC(=O)C3CC3)c2o1
log10 Ki: 0.88
//
Molecular String: CCNC(=O)NCCCc1cccc2nc(-c3ccccc3)oc12
log10 Ki: 1.79
//
Molecular String: CCNC(=O)NCCCc1cccc2nc(CC)oc12
log10 Ki: 1.08
//
Molecular String: CC(=O)NCCCc1cccc2nc(-c3ccccc3)oc12
log10 Ki: 1.95
//
Molecular String: Cc1nc2cccc(CCCNC(=O)C3CC3)c2o1
log10 Ki: 0.43
//
Molecular String: CCC(=O)NCCCc1cccc2nc(-c3ccccc3)oc12
log10 Ki: 1.00
//
Molecular String: CC(C)c1nc2cccc(CCCNC(=O)C3CC3)c2o1
log10 Ki: 2.06
//
Molecular String: CCCC(=O)NCCCc1cccc2nc(CCC)oc12
log10 Ki: 1.34
//
Molecular String: O=C(NCCCc1cccc2nc(CCCCc3ccccc3)oc12)C1CC1
log10 Ki: 1.34
//
Molecular String: CCC(=O)NCCCc1cccc2nc(CC)oc12
log10 Ki: 0.00
//
Molecular String: CCC(=O)NCCCc1cccc2nc(C(C)C)oc12
log10 Ki: 1.18
